Biological target: rat mGlu2 (Rattus norvegicus (Rat), UniProt P31421)
Sequence (P31421 19-872): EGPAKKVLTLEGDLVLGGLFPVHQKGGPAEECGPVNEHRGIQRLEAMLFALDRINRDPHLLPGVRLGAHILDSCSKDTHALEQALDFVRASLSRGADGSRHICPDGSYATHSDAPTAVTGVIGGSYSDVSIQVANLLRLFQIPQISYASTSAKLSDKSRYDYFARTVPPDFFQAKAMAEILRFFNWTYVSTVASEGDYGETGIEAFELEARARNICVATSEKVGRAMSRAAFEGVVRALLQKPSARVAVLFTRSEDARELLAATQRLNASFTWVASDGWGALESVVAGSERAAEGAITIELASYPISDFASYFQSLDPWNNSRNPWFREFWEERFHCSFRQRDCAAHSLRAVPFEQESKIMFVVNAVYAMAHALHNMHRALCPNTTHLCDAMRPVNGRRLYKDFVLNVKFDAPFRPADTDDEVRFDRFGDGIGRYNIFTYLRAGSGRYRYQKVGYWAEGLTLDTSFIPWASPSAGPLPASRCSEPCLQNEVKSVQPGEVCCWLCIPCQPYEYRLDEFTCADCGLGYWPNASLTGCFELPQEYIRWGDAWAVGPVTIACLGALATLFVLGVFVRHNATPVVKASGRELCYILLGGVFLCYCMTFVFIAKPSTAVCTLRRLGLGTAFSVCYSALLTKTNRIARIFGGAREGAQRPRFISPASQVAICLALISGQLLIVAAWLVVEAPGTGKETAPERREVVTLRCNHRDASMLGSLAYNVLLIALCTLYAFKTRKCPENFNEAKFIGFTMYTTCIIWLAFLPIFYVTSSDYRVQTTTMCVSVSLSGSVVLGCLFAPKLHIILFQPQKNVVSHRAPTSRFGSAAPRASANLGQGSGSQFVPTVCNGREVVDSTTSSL
Test: mGlu2 Ca2+ flux assay
Assay type: cell-based
Settings: amplitude of response in the presence of 30 μM test compound as percentage of maximal response to glutamate; read-out: rat mGlu2 Glu max
Procedure: Gα15 HEK293 cells stably expressing rat mGlu2 were plated in black-walled, clear-bottomed, poly-D-lysine coated 384-well plates in 20 μL of assay medium (DMEM containing 10% dialyzed FBS, 20 mM HEPES, and 1 mM sodium pyruvate) at a density of 12K cells/well. […] Ca^2+ flux was measured using the Functional Drug Screening System (FDSS7000, Hamamatsu, Japan). […] Calcium fluorescence measures were recorded as fold over basal fluorescence; raw data was then normalized to the maximal response to glutamate. […]
MEASURED PARAMETER: remaining activity at 30 µM (%)
Give bare numbers, in %.

A selection of reference data follows.
[
  {
    "MOLECULE": "CC(CN1CCOCC1)Nc1cnc(C#N)cc1-c1ccc(F)cc1 (centres unmarked)",
    "remaining activity at 30 µM (%)": 46.6
  },
  {
    "MOLECULE": "CN(CCOc1cnc(C(N)=O)cc1-c1ccc(F)cc1)c1ccnc(C(F)(F)F)c1",
    "remaining activity at 30 µM (%)": 4.02
  },
  {
    "MOLECULE": "NC(=O)c1cc(-c2ccc(F)cc2)c(N2CC(Oc3ccc(C(F)(F)F)nc3)C2)cn1",
    "remaining activity at 30 µM (%)": 53.9
  }
]

# map each molecule to its remaining activity at 30 µM
1. Cc1ccc(OCCCOc2cnc(C#N)cc2-c2ccc(F)cc2)cn1
2. CN(CCOCc1cncc(F)c1)c1cnc(C(N)=O)cc1-c1ccc(F)cc1
3. NC(=O)c1cc(-c2ccc(F)cc2)c(OCCOc2cccc(F)c2)cn1
4. NC(=O)c1cc(-c2ccc(F)cc2)c(N2CCC(Oc3ccc(C(F)(F)F)nc3)CC2)cn1
5. NC(=O)c1cc(-c2ccc(F)cc2)c(OC2CN(c3ccnc(C(F)(F)F)c3)C2)cn1

[reply]
[29, 2.62, 1.95, 35.1, 4.3]

----------
biological target: rat mGlu2 (Rattus norvegicus (Rat), UniProt P31421); assay: mGlu2 Ca2+ flux assay; conditions: Gα15 HEK293 cells stably expressing rat mGlu2; glutamate EC80; >10,000 = no plateau; >30,000 = no measurable activity
Criterion: IC50 strictly less than 6 µM. Met: YES. Not met: NO.

[
  {
    "COMPOUND": "N#Cc1cncc(COc2cnc(C(N)=O)cc2-c2ccc(F)cc2)c1",
    "CLASS ASSIGNMENT": "YES"
  }
]

[ask] Bench note: check whether "N#Cc1cccc(COc2cnc(C#N)cc2-c2ccc(F)cc2)c1" shows IC50 below 6 µM
[reply] NO

[ask] Could you please tell me whether IC50 recorded for "CN(CCOCc1cncc(F)c1)c1cnc(C(N)=O)cc1-c1ccc(F)cc1" is less than 6 µM?
[reply] YES

[ask] State whether 6 µM exceeds IC50 recorded for Cc1ccc(OC(C)COc2cnc(C(N)=O)cc2-c2ccc(F)cc2)cn1 (centres unmarked) .
[reply] YES

[ask] For "N#Cc1ccc(F)c(OCCOc2cnc(C(N)=O)cc2-c2ccc(F)cc2)c1" , is the recorded IC50 below the cut-off of 6 µM?
[reply] YES
